This listing pairs compounds with measured pEC50.
molecular target: ABCB4 WT (Homo sapiens, UniProt P21439); test: ABCB4 WT assay: HiBit protein expression; conditions: HEK-293 cells stably expressing HiBit-tagged ABCB4 WT; 24 h treatment; top concentration 30 μM; read-out: ABCB4 WT EC50, Emax
Sequence (P21439 whole entry): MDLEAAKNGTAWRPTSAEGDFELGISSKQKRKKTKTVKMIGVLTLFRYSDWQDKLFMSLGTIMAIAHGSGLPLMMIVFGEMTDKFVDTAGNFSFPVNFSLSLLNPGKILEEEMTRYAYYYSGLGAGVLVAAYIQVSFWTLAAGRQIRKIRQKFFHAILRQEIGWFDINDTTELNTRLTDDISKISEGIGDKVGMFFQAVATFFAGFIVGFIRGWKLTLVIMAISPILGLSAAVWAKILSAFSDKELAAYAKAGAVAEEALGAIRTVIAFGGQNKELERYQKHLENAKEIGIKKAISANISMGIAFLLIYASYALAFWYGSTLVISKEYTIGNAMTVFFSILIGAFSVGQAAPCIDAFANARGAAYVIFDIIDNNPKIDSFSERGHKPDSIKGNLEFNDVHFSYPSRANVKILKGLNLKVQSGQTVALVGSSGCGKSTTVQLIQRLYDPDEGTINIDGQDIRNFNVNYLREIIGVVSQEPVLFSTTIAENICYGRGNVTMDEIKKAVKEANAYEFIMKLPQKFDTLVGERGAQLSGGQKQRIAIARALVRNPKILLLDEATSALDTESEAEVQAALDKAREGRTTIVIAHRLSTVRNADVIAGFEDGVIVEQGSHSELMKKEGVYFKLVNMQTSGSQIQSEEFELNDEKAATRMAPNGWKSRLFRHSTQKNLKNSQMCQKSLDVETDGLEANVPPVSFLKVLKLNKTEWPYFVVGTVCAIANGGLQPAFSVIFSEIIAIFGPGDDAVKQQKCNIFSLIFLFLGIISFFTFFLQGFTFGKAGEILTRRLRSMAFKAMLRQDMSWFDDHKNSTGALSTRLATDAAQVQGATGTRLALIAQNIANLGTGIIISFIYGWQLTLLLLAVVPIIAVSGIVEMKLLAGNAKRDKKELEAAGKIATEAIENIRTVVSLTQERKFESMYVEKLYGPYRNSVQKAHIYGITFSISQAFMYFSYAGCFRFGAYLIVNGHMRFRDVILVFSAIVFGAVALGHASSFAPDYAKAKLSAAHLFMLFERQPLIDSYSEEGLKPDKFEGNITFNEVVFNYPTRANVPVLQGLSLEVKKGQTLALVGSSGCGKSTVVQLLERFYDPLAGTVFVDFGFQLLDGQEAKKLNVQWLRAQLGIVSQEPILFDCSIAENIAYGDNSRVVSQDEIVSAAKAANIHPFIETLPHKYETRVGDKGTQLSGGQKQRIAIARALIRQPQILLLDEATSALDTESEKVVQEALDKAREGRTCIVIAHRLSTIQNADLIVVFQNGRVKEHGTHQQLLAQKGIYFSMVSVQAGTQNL
pEC50: −log10 of the molar value.

{"COMPOUND": "Cc1cc(C)c(Oc2nc(-c3cncc(Cl)c3)ccc2S(=O)(=O)N[C@H](c2ccccc2)C(F)(F)F)c(C)c1", "pEC50": "> 4.60"}
{"COMPOUND": "CNS(=O)(=O)c1ccc(-c2cncc(C#N)c2)nc1Oc1c(C)nc(C(F)(F)F)nc1C1CC1", "pEC50": "≤ 4.60"}
{"COMPOUND": "Cc1nc(C2CC2)c(C(F)(F)F)cc1Oc1nc(-c2cncc(C#N)c2)ccc1NS(C)(=O)=O", "pEC50": "> 6.00"}
{"COMPOUND": "CNS(=O)(=O)c1ccc(-c2cncc(C#N)c2)nc1Oc1c(C)cc(C2CC2)nc1C1CC1", "pEC50": "≤ 4.60"}
{"COMPOUND": "Cc1nc(C(F)(F)F)nc(C2CC2)c1Oc1nc(-c2cncc(C#N)c2)ccc1S(=O)(=O)NC1CC1", "pEC50": "5.00 to 6.00"}
{"COMPOUND": "CNS(=O)(=O)c1ccc(-c2cncc(C#N)c2)nc1Oc1c(C)cc(C)cc1C", "pEC50": "> 6.00"}
{"COMPOUND": "COc1cc(C)c(Oc2nc(-c3cncc(C#N)c3)ccc2NS(C)(=O)=O)c(C)n1", "pEC50": "> 6.00"}

FYI, the data here is from patent US20250228835A1.
